As shown below, each of these compounds has a reported IC50 value.
Target: UniProt:Q9Y233
Sequence (Q9Y233 whole entry, species assumed): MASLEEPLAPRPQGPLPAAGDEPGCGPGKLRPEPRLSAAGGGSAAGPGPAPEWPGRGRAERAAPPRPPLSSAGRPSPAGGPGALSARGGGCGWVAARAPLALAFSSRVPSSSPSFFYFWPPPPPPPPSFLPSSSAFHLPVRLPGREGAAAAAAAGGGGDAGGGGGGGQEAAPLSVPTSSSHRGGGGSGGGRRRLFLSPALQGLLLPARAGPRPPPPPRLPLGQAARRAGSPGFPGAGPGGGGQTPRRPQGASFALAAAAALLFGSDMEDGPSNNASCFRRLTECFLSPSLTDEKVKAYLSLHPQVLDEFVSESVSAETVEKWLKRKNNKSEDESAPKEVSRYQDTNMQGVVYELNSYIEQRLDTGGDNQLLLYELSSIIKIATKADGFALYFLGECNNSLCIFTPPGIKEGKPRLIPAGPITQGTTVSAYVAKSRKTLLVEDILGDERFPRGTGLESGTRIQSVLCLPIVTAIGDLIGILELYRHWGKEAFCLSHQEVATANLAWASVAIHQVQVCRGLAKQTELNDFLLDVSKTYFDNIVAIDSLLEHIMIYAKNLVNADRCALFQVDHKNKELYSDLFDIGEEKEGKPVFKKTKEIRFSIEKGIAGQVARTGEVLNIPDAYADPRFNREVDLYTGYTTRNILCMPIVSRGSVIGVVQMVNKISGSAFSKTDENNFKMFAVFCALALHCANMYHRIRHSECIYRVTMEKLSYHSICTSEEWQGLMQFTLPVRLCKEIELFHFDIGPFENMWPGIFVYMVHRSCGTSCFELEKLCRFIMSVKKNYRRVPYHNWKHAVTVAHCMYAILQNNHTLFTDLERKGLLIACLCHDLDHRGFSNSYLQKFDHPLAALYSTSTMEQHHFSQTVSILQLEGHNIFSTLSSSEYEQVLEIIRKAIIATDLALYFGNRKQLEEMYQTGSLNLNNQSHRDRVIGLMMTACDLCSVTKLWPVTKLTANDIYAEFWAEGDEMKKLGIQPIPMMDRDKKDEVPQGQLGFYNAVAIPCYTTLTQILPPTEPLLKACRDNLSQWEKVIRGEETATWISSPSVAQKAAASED
Test: Measurement of PDE activity (recombinant PDE, cAMP HTRF)
Conditions: 20 nM cyclic nucleotide substrate, 60 minutes at 29 C

These solved cases illustrate the format of a correct answer.
- compound: "CCn1cc(C(=O)NCc2ccc(F)cc2)c2cc(OC)c(OC)cc2c1=O"
  IC50: "200 to 500 nM"
- compound: "CCC(CC)n1cc(C(=O)NCc2c(C)noc2C)c2cc(OC)c(OC)cc2c1=O"
  IC50: "100 to 200 nM"
- compound: "CCn1cc(C(=O)NCc2ccncn2)c2cc(OC)c(OC)cc2c1=O"
  IC50: "200 to 500 nM"
- compound: "CCn1cc(C(=O)Nc2ccccc2)c2cc(OC)c(OC)cc2c1=O"
  IC50: "200 to 500 nM"
- compound: "CCC(CC)n1cc(C(=O)NC2CCc3ccc(C)cc32)c2cc(OC)c(OC)cc2c1=O (centres unmarked)"
  IC50: "100 to 200 nM"

# input Item: CCC(CC)n1cc(C(=O)NC2CCc3c(C)cccc32)c2cc(OC)c(OC)cc2c1=O (centres unmarked) Test system: UniProt:Q9Y233 Read-out: IC50 Value: ?
# output < 100 nM

# input Observed IC50 on UniProt:Q9Y233 for CCC(CC)n1cc(C(=O)NC2CC(=O)c3sccc32)c2cc(OC)c(OC)cc2c1=O (centres unmarked) , please.
# output 100 to 200 nM

# input Under UniProt:Q9Y233: IC50 value of CCC(CC)n1cc(C(=O)NCc2ncc(C)s2)c2cc(OC)c(OC)cc2c1=O ?
# output 100 to 200 nM

====

Target: UniProt Q9Y233
Experiment: Measurement of PDE activity (recombinant PDE, cAMP HTRF)
Settings: 20 nM cyclic nucleotide substrate, 60 minutes at 29 C
Method: a) Measurement of PDE Activity The recombinant PDE proteins are used in in vitro enzymatic reaction for measurement of PDE activity. These recombinant proteins, including PDE10A (human, rat and mouse PDE10) and isoforms of PDEs 1, 3, 4, and 5, were purchased from commercial vendor BPS Bioscience. The enzymatic activity of PDEs was determined by cAMP measurement kit from CisBio (IBA) using HTRF technology. […]
measured quantity: IC50

- compound: "CCn1cc(C(=O)NCc2ccc(C)cc2OCC2CCCO2)c2cc(OC)c(OC)cc2c1=O (stereo not drawn)"
  measured quantity: "IC50"
  reading: "200 to 500 nM"

# input Fill in: IC50 of CCn1cc(C(=O)NCc2ccc(F)cc2F)c2cc(OC)c(OC)cc2c1=O is ___
# output 200 to 500 nM

# input Requested field: IC50. Item: CCC(CC)n1cc(C(=O)NC2CSc3ccccc32)c2cc(OC)c(OC)cc2c1=O (stereo not drawn)
# output < 100 nM

# input Given CCC(CC)n1cc(C(=O)NCc2scnc2C)c2cc(OC)c(OC)cc2c1=O , state its recorded IC50.
# output 200 to 500 nM

# input May I ask what IC50 has been recorded for CCn1cc(C(=O)Nc2ccccc2OC)c2cc(OC)c(OC)cc2c1=O ?
# output 200 to 500 nM

# input # get_value(readout='IC50', item= CCC(CC)n1cc(C(=O)NCc2cccnc2)c2cc(OC)c(OC)cc2c1=O )
# output 100 to 200 nM

# input GET /values?readout=IC50&item= CCC(CC)n1cc(C(=O)NCc2sccc2C)c2cc(OC)c(OC)cc2c1=O
# output 100 to 200 nM

# input For the compound CCn1cc(C(=O)NC2CCc3c(F)cccc32)c2cc(OC)c(OC)cc2c1=O (stereo not drawn) , what IC50 is on record?
# output 200 to 500 nM

# input // returns reported IC50 for input CCn1cc(C(=O)NCc2ccccn2)c2cc(OC)c(OC)cc2c1=O
# output 200 to 500 nM
